Cited source: the DeepSol protein solubility set

# method notes: soluble on expression in E. coli; label from the status in PepcDB or PDB records
readout name: soluble on expression in E. coli

Past entries and their recorded results:
| sequence record | readout name | observed |
| --- | --- | --- |
| MGSSHHHHHHGKTIFVIVPTNEEQVAFLEALAKQDELNFDWQNPPTEPGQPVVILIPSDMVEWFLEMLKAKGIPFTVYVEEGGSENLYFQGGGGGGRRGFTETVSPVAGFHIFTLFLLRELIEPWSQGQVRAQAARAREAQRRSFTTDIAMQYREKLD | soluble on expression in E. coli | soluble |
| SGRPLEGQPLRALDLYPEPAFLRSGKDPKSSPASSPSFAVLGPEVRSTGGQAGSRRRPSAPCSQDRAAAEGAPALLGGSPSSGSPGHPPGSAFGVEAGCRALNVSEHARGGFALGLPFGLSGGAYLFLLLDGAGDPKPTPEAPISSADGRAWFPSESSWQLPQLPAGSTSGSEPRARPGLGPRQLPTGPRDGAAGQGPGRGLTARLGREREIDCGPRQAGHGGTATDTGRAGSGARHRPPRDRGTPGLRTH | soluble on expression in E. coli | soluble |
| MNNHNCFLTPLQQKFMQILSDYERDPKSIQIHEESDQMDVVISYFKLLLAEKSRLLQYGQANFSVHLIDEEIGRLFMAPISMADIGILEECGREALRFTDLGAMFSDSDDSMHSDEDEVTLTESIRIPVETYPTYNFIGRIIGPRGTTAKQLEKDTGCRIMIRGNHSNKMYGNALHKTHGDGSQDAIDLPLRVIVETSGPRREATARITAALETVQVLLVPPPDGRDELKRRQLVELAIMNGTYRPSCSRIDHN | soluble on expression in E. coli | not soluble |
| GQSAKEAIEAANADFVKAYNSKDAAGVASKYMDDAAAFPPDMARVDGRQNIQKLWQGAMDMGISELKLTTLDVQESGDFAFESGSFSLKAPGKDSKLVDAAGKYVVVWRKGQDGGWKLYRDIWNSDPAK | soluble on expression in E. coli | soluble |
| MAHHHHHHMGTLEAQTQGPGSMSVRVAINGFGRIGRNILRAIIESGRQDIEVVALNDLGSVETNAHLLRYDSVHGCFPGTVQVVGDAIDIGSSLIKVFAERDPAQLPWKALDIDIALECTGIFTARDKASAHLDAGAKRVLVSAPSEGADLTVVYGVNHQFLSKEHHVISNASCTTNCLAPVAQVLHNTVGIEKGFMTTIHSYTGDQPVLDTMHRDLYRARAAALSMIPTSTGAAKAVGLVLPELKGLLDGVSIRVPTPNVSVVDLTFTAKRSTTIEEINTAIRTAAQGSLKGILDYTDEKLVSCDFNHNPHSAIFHNDQTKVIDGQLCRVLVWYDNEWGFSNRMCDTAVAFAKTI | soluble on expression in E. coli | soluble |

// moving on: another record for soluble on expression in E. coli
Record request: soluble on expression in E. coli value, item MGSDKIHHHHHHMYLVEVFFTYRQPQKLPISNISYLINQIIEQWRYNGQIIGREIPLFVAVQNNEEGFALRVTCPEQQSLLPTFNNIQVDKALKQAKSAGIFFDSFQIIADDLNSDITYSKEVATWQVLYTTYLQSCSPLHSGDNLLPIPLYKQFKNIPHLSMDIIKWQENWQACDQLQMNGSILEQQALYEISDFNSHLTKHGYYLTQEIEKHTGIPTFYYLYRIGGDDLQSEQQRLCPNCQQKWHLDKPLFNLFHFKCDHCRLVSNLSWHWQ
not soluble
